- System: Staphylococcus aureus
- PROCEDURE_TEXT: Antibacterial activity against Staphylococcus aureus ATCC 6538 after 24 hrs by microdilution assay
- Assay type: functional
- COND: ATCC 6538, 24 h
READOUT: MIC95 (µM)
Unit µM implied. Number only.

Query string: Checklist item: MIC95 tested on Staphylococcus aureus, entry COc1cc(OC)c(C2=C(c3ccc(OC)c(OC)c3OC)COC2=O)c(OC)c1 , value?
Result string: 31.2

Query string: Checklist item: MIC95 tested on Staphylococcus aureus, entry Cc1ccc(C2=C(c3cccc(Cl)c3)C(=O)OC2)cc1 , value?
Result string: 1.95

Query string: Checklist item: MIC95 tested on Staphylococcus aureus, entry COc1ccc(C2=C(c3cccc(Cl)c3Cl)C(=O)OC2(CO)CO)cc1 , value?
Result string: 7.81

====

For each entry below, report its MIC95 value.
- Tested on: Staphylococcus aureus
- PROCEDURE_TEXT: Antibacterial activity against Staphylococcus aureus ATCC 6538 after 24 hrs by microdilution assay
- Format: functional
- COND: ATCC 6538, 24 h
Unit µM implied. Number only.

Query string: Recorded MIC95 of O=C1OCC(c2ccccc2)=C1c1cccc(C(F)(F)F)c1 , please.
Result string: 15.6

Query string: Recorded MIC95 of Cc1ccc(C2=C(c3ccc(F)cc3)C(=O)OC2)cc1 , please.
Result string: 125

Query string: Recorded MIC95 of O=C1OCC(c2ccccc2)=C1c1ccc(F)cc1 , please.
Result string: 15.6

Query string: Recorded MIC95 of COc1ccc(C2=C(c3ccc4c(c3)OCO4)COC2=O)cc1 , please.
Result string: 7.81

Query string: Recorded MIC95 of O=C1OCC(c2ccc(O)c(O)c2)=C1c1ccc(O)cc1 , please.
Result string: 250

Query string: Recorded MIC95 of O=C1OC(CO)(CO)C(c2ccc(Br)cc2)=C1c1cccc(Cl)c1Cl , please.
Result string: 15.6

Query string: Recorded MIC95 of COc1ccc(C2=C(c3c(Cl)cccc3Cl)C(=O)OC2)cc1 , please.
Result string: 62.5

Query string: Recorded MIC95 of COc1ccc(C2=C(c3ccc(OC)c(OC)c3)C(CO)OC2=O)cc1 (stereo unspecified) , please.
Result string: 125

====

- Test system: Staphylococcus epidermidis
- PROCEDURE_TEXT: Antibacterial activity against Staphylococcus epidermidis HK6966/08 clinical isolate after 48 hrs by microdilution assay
- Format: functional
- COND: HK6966/08, 48 h
Simple rule here: MIC95 less than 100 µM is T, otherwise F.

Query string: Identify whether the compound COc1ccc(C2=C(c3ccc4c(c3)OCO4)COC2=O)cc1 records MIC95 below 100 µM.
Result string: F

Query string: Identify whether the compound COc1ccc(C2=C(c3ccc(OC)c(OC)c3)C(CO)(CO)OC2=O)cc1 records MIC95 below 100 µM.
Result string: F

Query string: Identify whether the compound O=C1OCC(c2ccccc2)=C1c1ccc(F)cc1 records MIC95 below 100 µM.
Result string: F

Query string: Identify whether the compound O=C1OCC(c2ccc(C(F)(F)F)cc2)=C1c1c[nH]c2ccccc12 records MIC95 below 100 µM.
Result string: F

Query string: Identify whether the compound Cc1ccc(C2=C(c3ccc(Br)cc3)C(=O)OC2)cc1 records MIC95 below 100 µM.
Result string: T

Query string: Identify whether the compound CC(=O)OCC1(COC(C)=O)OC(=O)C(c2ccc(Br)cc2)=C1c1ccc(C)cc1 records MIC95 below 100 µM.
Result string: F

Query string: Identify whether the compound O=C1OCC(c2ccccc2)=C1c1ccc(Br)cc1 records MIC95 below 100 µM.
Result string: T

Query string: Identify whether the compound Cc1ccc(C2=C(c3ccc(F)cc3)C(=O)OC2)cc1 records MIC95 below 100 µM.
Result string: F

Query string: Identify whether the compound COc1cc(OC)c(C2=C(c3ccc(OC)c(OC)c3OC)COC2=O)c(OC)c1 records MIC95 below 100 µM.
Result string: F

Query string: Identify whether the compound O=C1OCC(c2ccc3c(c2)OCO3)=C1c1ccc2c(c1)OCO2 records MIC95 below 100 µM.
Result string: F

Query string: Identify whether the compound COc1ccc(C2=C(c3ccc(OC)c(OC)c3)C(CO)OC2=O)cc1 (stereo unspecified) records MIC95 below 100 µM.
Result string: T
